The following molecules are shown together with reported activation values.
Assay: activators of insulin promoter-driven GFP, primary screen, imaging, TRM-6 cells, eGFP reporter, cell count (AID 1296);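 as to activation: share of cells whose green reporter signal exceeds an intensity cutoff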
Conditions: at 2 µM; stronger effect = higher value
The campaign covered roughly 130,000 compounds. About 1,000 (0.77%) were called active. Roughly 1% stayed inconclusive and do not appear here. This is one part of a sample in which actives are shown more often than they occur.

# molecule, readout-units, activation
records = [
    ("O=C(CN1CCCC1=O)NCCc1ccccc1", "%", -2.56),
    ("CC[N+]1(C)CCCC(OC(=O)C(O)(c2ccccc2)c2ccccc2)C1 (stereo unspecified)", "%", 295),
    ("COC(=O)CN1C(=O)C2(C(C(=O)OC)=C(N)Oc3ccccc32)C2=C1CC(C)(C)CC2=O (stereo unspecified)", "%", -6.67),
    ("O=C(COC(=O)c1ccccc1)Nc1ccc(Cl)cc1C(=O)c1ccccc1", "%", -3.33),
    ("Cc1nn(Cc2ccccc2Cl)c(Cl)c1C(=O)OC(C(=O)NC(N)=O)C(C)C (stereo unspecified)", "%", 6.67),
    ("CCOCCc1c(O)[nH]c(=S)[nH]c1=O", "%", 0),
    ("CC1=CC(=Cc2sc3ccccc3[n+]2C)C=C(C)O1", "%", 456),
    ("O=[N+]([O-])c1ccc(C2C3C(c4ccccc4)=NC4(CCCCC4)N32)cc1 (stereo unspecified)", "%", -4.54),
    ("CC(=O)c1c(O)n(C2CCCCCC2)c(=O)[nH]c1=O", "%", 146),
    ("CC(=O)c1c(C)n(C(C)C)c2ccc(O)cc12", "%", 269),
    ("Cc1ccc(N2C(=O)NC(=O)C(CCc3ccncc3)(Cc3cccc(Cl)c3Cl)C2=O)cc1 (stereo unspecified)", "%", 169),
]

* * *

Assay: activators of insulin promoter-driven GFP, primary screen, imaging, TRM-6 cells (human fetal islet line), eGFP reporter, cell count (AID 1296)
Conditions: at 2 µM; measured here: cell count (toxicity)
The campaign covered roughly 130,000 compounds. About 1,000 (0.77%) were called active. Roughly 1% stayed inconclusive and do not appear here. This is one part of a sample in which actives are shown more often than they occur.

# compound, normalized cell count
data = [
    ("O=[N+]([O-])c1ccc(C2C3C(c4ccccc4)=NC4(CCCCC4)N32)cc1 (configuration not stated)", "112%"),
    ("CCOCCc1c(O)[nH]c(=S)[nH]c1=O", "137%"),
    ("COC(=O)CN1C(=O)C2(C(C(=O)OC)=C(N)Oc3ccccc32)C2=C1CC(C)(C)CC2=O (configuration not stated)", "84.7%"),
    ("O=C(COC(=O)c1ccccc1)Nc1ccc(Cl)cc1C(=O)c1ccccc1", "106%"),
    ("O=C(COc1ccc2ccccc2c1)N1CCN(Cc2ccncc2)CC1", "106%"),
    ("CC(=O)c1ccc(OC(NC(=O)Cc2ccccc2)C(Cl)(Cl)Cl)cc1 (configuration not stated)", "137%"),
    ("CC1=CC(=Cc2sc3ccccc3[n+]2C)C=C(C)O1", "88.8%"),
]
